Biological target: BgaD-D, smallest isozyme of the β-galactosidase from B. circulans ATCC 31382 (Biolacta) (Bacillus circulans ATCC 31382)
Assay: Kd table; method not given
parameter: Kd (nM)

binder | reading
Mb(BgaD_S11) (designed binder) VSSVPTKLEVVAATPTSLLISWDAPAVTVVLYVITYGETGPGHSAWPQAFTVPGSKSTATISGLKPGVDYTITVYAYWDWDSHRYSPISINYRT | 246
Mb(BgaD_S08) (designed binder) VSSVPTKLEVVAATPTSLLISWDAPAVTVDLYVITYGETGGSSWPQAFTVPGSKSTATISGLKPGVDYTITVYAHSWDHSYSPISINYRT | 214
